ASSAY_INFO: Quantitative High-Throughput drug screen in 47 multiple myeloma cell lines against the NCATS MIPE library collection: L363_DSMZ cell viability assay (AID 1918984); further: nearly all actives have a fitted effect of over 40% in size
SETTINGS: L363 myeloma viability, CellTiter-Glo ATP luminescence, 48 h; series mostly up to 45.8 µM
Results filed as inconclusive are left out. Activity calls are given as the source filed them. The call rests on the fitted dose curve; in most records, active means well fitted cell-killing curve with a large enough effect; inconclusive means small, poorly fitted or top-dose-only effect, or effect the other way; inactive means no such curve, though single readings can be large or run the other way.
Outcome codes: label 1 for active, label 0 for inactive

molecule=CCC(CC)[C@H](NC(C)=O)[C@@H]1[C@H](O)[C@@H](C(=O)O)C[C@@H]1N=C(N)N class="label 0"
molecule=O=c1cc(-c2ccccc2)oc2cc(O)c(O)c(O)c12 class="label 0"
molecule=COc1ccc2cccc(CCNC(C)=O)c2c1 class="label 0"
molecule=CCn1cc(C(=O)O)c(=O)c2ccc(C)nc21 class="label 0"
molecule=OC[C@H]1O[C@@H](n2cnc3c2NC=NC[C@@H]3O)C[C@H]1O class="label 0"
molecule=Cc1c[nH]c(C=C2C(=O)Nc3ccccc32)c1CCC(=O)O class="label 0"
molecule=Cc1ccc(F)c(NC(=O)Nc2ccc(-c3cccc4[nH]nc(N)c34)cc2)c1 class="label 1"
molecule=O=C1NC(=O)C(=Cc2ccc(-c3ccc(F)cc3)o2)S1 class="label 1"
molecule=CCS(=O)(=O)N1CC(CC#N)(n2cc(-c3ncnc4[nH]ccc34)cn2)C1 class="label 0"
molecule="CC(=O)Oc1cc2c(s1)CCN(C(C(=O)C1CC1)c1ccccc1F)C2 (stereo unspecified)" class="label 1"
molecule=O=c1[nH]cnc2c1ncn2[C@H]1CC[C@@H](CO)O1 class="label 0"
molecule=NC1=N[C@@]2(c3cc(NC(=O)c4ccc(F)cn4)ccc3F)COC[C@@H]2CS1 class="label 1"
molecule=O=C1C(Cl)=C(NCCN2CCOCC2)C(=O)c2ncccc21 class="label 1"
molecule=CC(C)C(=O)Nc1ncc(-c2cc(C(F)F)nn2-c2c(Cl)cccc2Cl)s1 class="label 1"
molecule=C[N+](C)(C)CC(=O)O class="label 0"
molecule="Cc1nnc(C(C)C)n1C1C[C@H]2CC[C@@H](C1)N2CC[C@H](NC(=O)C1CCC(F)(F)CC1)c1ccccc1 (stereo partly specified)" class="label 0"
molecule=CC(C)(C)COc1ccc(-n2cc(C(=O)O)cn2)cc1C#N class="label 0"
molecule=O=C(NCc1ccccc1)c1csc(Nc2ccncn2)n1 class="label 1"
molecule="C[C@]12CC[C@@H]3c4ccc(O)cc4C[C@@H](CCCCCCCCCS(=O)CCCC(F)(F)C(F)(F)F)[C@H]3[C@H]1CC[C@H]2O (stereo partly specified)" class="label 0"
molecule=CC(C)(C)Cn1c(N)nc2ccc(-c3[nH]c(C(C)(C)C)nc3-c3ccc(F)cc3)nc21 class="label 0"
molecule=Cc1c(O)cccc1C(=O)N[C@@H](CSc1ccccc1)[C@H](O)CN1C[C@H]2CCCC[C@@H]2C[C@@H]1C(=O)NC(C)(C)C class="label 1"

* * *

TARGET_OF_ASSAY: Cytochrome P450 2C9 (Homo sapiens) (UniProt P11712)
Sequence (P11712 whole entry, looked up): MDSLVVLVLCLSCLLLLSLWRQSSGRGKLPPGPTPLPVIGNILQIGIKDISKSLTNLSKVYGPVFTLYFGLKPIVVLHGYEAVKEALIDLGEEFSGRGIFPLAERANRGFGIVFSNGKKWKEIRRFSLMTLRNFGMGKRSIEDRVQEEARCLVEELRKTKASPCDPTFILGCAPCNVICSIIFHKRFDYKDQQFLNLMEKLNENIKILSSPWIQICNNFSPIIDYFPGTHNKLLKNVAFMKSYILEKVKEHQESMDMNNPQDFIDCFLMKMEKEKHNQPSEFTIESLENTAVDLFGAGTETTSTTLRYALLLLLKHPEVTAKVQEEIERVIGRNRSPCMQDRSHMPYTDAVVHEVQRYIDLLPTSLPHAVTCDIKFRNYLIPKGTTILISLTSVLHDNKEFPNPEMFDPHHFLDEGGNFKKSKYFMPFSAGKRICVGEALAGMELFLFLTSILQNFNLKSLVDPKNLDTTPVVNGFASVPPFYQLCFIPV
ASSAY_INFO: Cytochrome P450 family 2 subfamily C member 9 (CYP2C9) small molecule antagonists: luciferase biochemical (cell-free) qHTS assay (AID 1645842); further: nearly all actives have a fitted effect of over 55% in size
SETTINGS: P450-Glo CYP2C9 enzyme assay, luciferin luminescence; series mostly up to 57.4 µM
Results filed as inconclusive are left out. The source made the active and inactive calls. The call rests on the fitted dose curve; in most records, active means well fitted inhibition curve with a large enough effect in the repeat runs; inconclusive means weak or mixed curves; inactive means no such curve, though single readings can be large or run the other way.
Outcome codes: active, inactive

compound=OC[C@@H](O)[C@H](O)[C@H](O)[C@@H](O)CO target_of_assay="Cytochrome P450 2C9 (Homo sapiens) (UniProt P11712)" class=inactive
compound=C[C@@H]1CCN(C(=O)CC#N)C[C@H]1N(C)c1ncnc2[nH]ccc12 target_of_assay="Cytochrome P450 2C9 (Homo sapiens) (UniProt P11712)" class=inactive
compound=COCCOc1nc(-c2ccc(Cl)c(Cl)c2)n(-c2ccc(NC(=O)CCl)cc2)n1 target_of_assay="Cytochrome P450 2C9 (Homo sapiens) (UniProt P11712)" class=active
compound=CCc1ccc(OCc2ccccc2C(=O)Nc2ccc3nc(C)cc(N)c3c2)cc1 target_of_assay="Cytochrome P450 2C9 (Homo sapiens) (UniProt P11712)" class=active
compound=O=c1c(-c2ccc(O)cc2)coc2cc(O)ccc12 target_of_assay="Cytochrome P450 2C9 (Homo sapiens) (UniProt P11712)" class=active
compound=Cc1cccc(Nc2nc(-c3ccncc3)cs2)c1 target_of_assay="Cytochrome P450 2C9 (Homo sapiens) (UniProt P11712)" class=active
compound="CCCCCNC(=O)N1CCC(CN(Cc2ccc(Cl)cc2)Cc2ccc([N+](=O)[O-])s2)C1 (configuration not stated)" target_of_assay="Cytochrome P450 2C9 (Homo sapiens) (UniProt P11712)" class=active
compound=CN1C[C@H]2c3ccccc3Oc3ccc(Cl)cc3[C@@H]2C1 target_of_assay="Cytochrome P450 2C9 (Homo sapiens) (UniProt P11712)" class=inactive
compound=CC(C)(Cc1ccc2ccccc2c1)NC[C@@H](O)COc1cccc(Cl)c1C#N target_of_assay="Cytochrome P450 2C9 (Homo sapiens) (UniProt P11712)" class=active
compound=NC(N)=Nc1nc(CSCC/C(N)=N/S(N)(=O)=O)cs1 target_of_assay="Cytochrome P450 2C9 (Homo sapiens) (UniProt P11712)" class=inactive
compound="COc1ccc(C2CC(c3ccccc3)=NN2c2ccc(S(N)(=O)=O)cc2)cc1 (configuration not stated)" target_of_assay="Cytochrome P450 2C9 (Homo sapiens) (UniProt P11712)" class=active
compound=CCS(=O)(=O)N1CC(CC#N)(n2cc(-c3ncnc4[nH]ccc34)cn2)C1 target_of_assay="Cytochrome P450 2C9 (Homo sapiens) (UniProt P11712)" class=inactive
compound=O=C(O)CCc1nc(-c2ccccc2)c(-c2ccccc2)o1 target_of_assay="Cytochrome P450 2C9 (Homo sapiens) (UniProt P11712)" class=inactive
compound=CCOc1ccc(Nc2nc(-c3c(C)nc4ccccn34)cs2)cc1 target_of_assay="Cytochrome P450 2C9 (Homo sapiens) (UniProt P11712)" class=active
compound=N#C[C@H]1C[C@H]2C[C@@H]2N1C(=O)[C@@H](N)C12CC3CC(CC(O)(C3)C1)C2 target_of_assay="Cytochrome P450 2C9 (Homo sapiens) (UniProt P11712)" class=inactive
compound=COc1ccc2c(Oc3ccc(NC(=O)c4c(C)n(CC(C)(C)O)n(-c5ccccc5)c4=O)cc3F)ccnc2c1 target_of_assay="Cytochrome P450 2C9 (Homo sapiens) (UniProt P11712)" class=active
compound=NC(=O)c1cccc(-c2cc(Nc3ccc(OC(F)(F)F)cc3)ncn2)c1 target_of_assay="Cytochrome P450 2C9 (Homo sapiens) (UniProt P11712)" class=active
compound=COc1cc(NC(=O)c2ccc(-c3ccc(Cl)cc3)o2)cc(OC)c1 target_of_assay="Cytochrome P450 2C9 (Homo sapiens) (UniProt P11712)" class=active
compound=CN(C[C@@H]1COCCO1)S(=O)(=O)Nc1ccc2ccc3ncc(-c4cnn(C)c4)cc3c(=O)c2c1 target_of_assay="Cytochrome P450 2C9 (Homo sapiens) (UniProt P11712)" class=active
compound=COc1ccccc1N1CCN(CCCNc2cc(=O)n(C)c(=O)n2C)CC1 target_of_assay="Cytochrome P450 2C9 (Homo sapiens) (UniProt P11712)" class=inactive
compound=C[C@H](NC(=O)c1sccc1OCc1ccc(Cl)cc1)c1ccccc1 target_of_assay="Cytochrome P450 2C9 (Homo sapiens) (UniProt P11712)" class=active
compound="O=C1Nc2ccc(Cl)cc2C(C#CC2CC2)(C(F)(F)F)O1 (configuration not stated)" target_of_assay="Cytochrome P450 2C9 (Homo sapiens) (UniProt P11712)" class=active
compound=CC(C)OC(=O)C(C)(C)Oc1ccc(C(=O)c2ccc(Cl)cc2)cc1 target_of_assay="Cytochrome P450 2C9 (Homo sapiens) (UniProt P11712)" class=active
compound=O=C1NCC2(CCN(CCc3ccccc3)CC2)O1 target_of_assay="Cytochrome P450 2C9 (Homo sapiens) (UniProt P11712)" class=inactive
compound="CC1CCC(C(=O)N(c2cc(C#CC(C)(C)C)sc2C(=O)O)C2CCC(O)CC2)CC1 (configuration not stated)" target_of_assay="Cytochrome P450 2C9 (Homo sapiens) (UniProt P11712)" class=inactive
compound=COc1cc2ncnc(Nc3ccc(F)c(Cl)c3)c2cc1OCCCN1CCOCC1 target_of_assay="Cytochrome P450 2C9 (Homo sapiens) (UniProt P11712)" class=inactive
compound=O=c1cc(-c2ccc(O)cc2)oc2cc(O)cc(O)c12 target_of_assay="Cytochrome P450 2C9 (Homo sapiens) (UniProt P11712)" class=active
compound="CS(=O)c1ccc(-c2nc(-c3ccc(F)cc3)c(-c3ccncc3)[nH]2)cc1 (configuration not stated)" target_of_assay="Cytochrome P450 2C9 (Homo sapiens) (UniProt P11712)" class=active
compound=CC(C)(C)Cn1c(N)nc2ccc(-c3[nH]c(C(C)(C)C)nc3-c3ccc(F)cc3)nc21 target_of_assay="Cytochrome P450 2C9 (Homo sapiens) (UniProt P11712)" class=active
compound=CN(C)c1cc(NC(=O)CNC(C)(C)C)c(O)c2c1C[C@@H]1C[C@H]3[C@H](N(C)C)C(=O)C(C(N)=O)=C(O)[C@@]3(O)C(=O)C1=C2O target_of_assay="Cytochrome P450 2C9 (Homo sapiens) (UniProt P11712)" class=inactive
compound=O=C(Nc1ccccc1Br)N[C@@H]1CCN(c2ccc(C(F)(F)F)cn2)C1 target_of_assay="Cytochrome P450 2C9 (Homo sapiens) (UniProt P11712)" class=active
compound=CCN(CC)CCOC(=O)c1ccc(N)cc1 target_of_assay="Cytochrome P450 2C9 (Homo sapiens) (UniProt P11712)" class=inactive
compound=COc1ccc2c(Oc3ccc(NC(=O)c4c(C)n(CC(C)(C)O)n(-c5ccccc5)c4=O)nc3)ccnc2c1 target_of_assay="Cytochrome P450 2C9 (Homo sapiens) (UniProt P11712)" class=active
compound=c1ccc2c(-c3cnn4cc(-c5ccc(N6CCNCC6)cc5)cnc34)ccnc2c1 target_of_assay="Cytochrome P450 2C9 (Homo sapiens) (UniProt P11712)" class=inactive
compound=Cc1ccc([C@@H]2O[C@H](CO)[C@@H](O)[C@H](O)[C@@H]2O)cc1Cc1ccc(-c2ccc(F)cc2)s1 target_of_assay="Cytochrome P450 2C9 (Homo sapiens) (UniProt P11712)" class=active
compound=CC(=O)N[C@@H](CS)C(=O)O target_of_assay="Cytochrome P450 2C9 (Homo sapiens) (UniProt P11712)" class=inactive
compound=O=C(O)Cc1cccc2ccccc12 target_of_assay="Cytochrome P450 2C9 (Homo sapiens) (UniProt P11712)" class=inactive
compound=O=c1[nH]cnc2c1ncn2[C@H]1CC[C@@H](CO)O1 target_of_assay="Cytochrome P450 2C9 (Homo sapiens) (UniProt P11712)" class=inactive
compound=CCn1c(C(=O)N(C2CC2)C2CC2)cc2c3c(ncn3C)c(Nc3cc(C)n(C)n3)nc21 target_of_assay="Cytochrome P450 2C9 (Homo sapiens) (UniProt P11712)" class=active
compound=O=C(NCCN1CCOCC1)c1ccc(Cl)cc1 target_of_assay="Cytochrome P450 2C9 (Homo sapiens) (UniProt P11712)" class=inactive
compound=O=C1C[C@@H](c2ccc(O)cc2)Oc2cc(O)cc(O)c21 target_of_assay="Cytochrome P450 2C9 (Homo sapiens) (UniProt P11712)" class=active
compound=CC1=C(/C=C/C(C)=C/C=C/C(C)=C/C(=O)Nc2ccc(O)cc2)C(C)(C)CCC1 target_of_assay="Cytochrome P450 2C9 (Homo sapiens) (UniProt P11712)" class=active
